tgt: T1, GST-SDE2-FLAG WT (human, UniProt Q6IQ49 1-451)
T1 sequence: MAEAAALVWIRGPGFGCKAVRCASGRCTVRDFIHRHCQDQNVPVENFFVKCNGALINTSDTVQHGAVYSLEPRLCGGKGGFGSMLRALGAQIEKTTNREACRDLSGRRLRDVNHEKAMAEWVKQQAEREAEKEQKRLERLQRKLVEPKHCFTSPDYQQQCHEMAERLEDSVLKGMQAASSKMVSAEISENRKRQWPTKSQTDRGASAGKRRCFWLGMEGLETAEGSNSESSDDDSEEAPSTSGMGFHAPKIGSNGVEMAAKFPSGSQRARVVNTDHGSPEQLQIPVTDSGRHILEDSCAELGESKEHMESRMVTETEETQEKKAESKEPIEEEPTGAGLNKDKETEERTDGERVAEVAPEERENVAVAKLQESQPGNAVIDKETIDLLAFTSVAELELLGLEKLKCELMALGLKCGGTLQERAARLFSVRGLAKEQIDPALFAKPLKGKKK
procedure.details: fluorescence anisotropy; EMSA: 10 mM Tris-HCl pH 7.5, 50 mM NaCl, 0.5 mM DTT, 0.05 mM EDTA, 3% glycerol, 0.05 mg/ml BSA (or 50 mM Na/K PO4 pH 6.0, 50 mM NaCl, 5 mM DTT), on ice; anisotropy: 50 mM Na/K PO4 pH 6.0, 50 mM NaCl, 5 mM DTT, 1 uM DNA; pull-down: 10 mM Tris-HCl pH 7.5, 100 mM NaCl, 0.2 mM EDTA, 1 mM DTT, 10% glycerol, 0.01% NP-40, 10 ug/ml BSA, RT; NMR: 50 mM Na/K phosphate, 50 mM NaCl, 5 mM DTT, 10% D2O
assay.setup: protein: recombinant; tags: N-term GST, C-term FLAG; label: 5' 6-FAM
quantity.name: Kd

>>> df
                                     binder  quantity_name  readout_value
0  60-mer ssDNA (EMSA1) (ssDNA) DNA: GACGCTGCCGAATTCTACCAGTGCCTTGCTAGGACATCTTTGCCCACCTGCAGGTTCACCC             Kd       ~1100 nM

All figures here come from paper PMC9399289.
